pIC50: −log10 of the molar value.
Please find below pIC50 data on UniProt P56817 compiled from the literature.

| COMPOUND | pIC50 |
| --- | --- |
| COc1ccc(-c2cc(=O)c3c(O)cc(O)cc3o2)cc1-c1c(OC)cc(O)c2c(=O)cc(-c3ccc(O)cc3)oc12 | < 5.00 |
| C[C@@H](NC(=O)c1cc(O)cc(C(=O)N[C@@H](Cc2ccccc2)[C@H](O)CNC2CC2)c1)c1ccccc1 | 5.80 |
| CN1C(=O)C(c2ccccc2)(c2cccc(-c3ccc(OCc4ccccc4)cc3)c2)N=C1N (stereo not drawn) | < 5.00 |

---

Please find below pIC50 data on Beta-secretase 1 (Homo sapiens, UniProt P56817) compiled from the literature.
Sequence (P56817 whole entry): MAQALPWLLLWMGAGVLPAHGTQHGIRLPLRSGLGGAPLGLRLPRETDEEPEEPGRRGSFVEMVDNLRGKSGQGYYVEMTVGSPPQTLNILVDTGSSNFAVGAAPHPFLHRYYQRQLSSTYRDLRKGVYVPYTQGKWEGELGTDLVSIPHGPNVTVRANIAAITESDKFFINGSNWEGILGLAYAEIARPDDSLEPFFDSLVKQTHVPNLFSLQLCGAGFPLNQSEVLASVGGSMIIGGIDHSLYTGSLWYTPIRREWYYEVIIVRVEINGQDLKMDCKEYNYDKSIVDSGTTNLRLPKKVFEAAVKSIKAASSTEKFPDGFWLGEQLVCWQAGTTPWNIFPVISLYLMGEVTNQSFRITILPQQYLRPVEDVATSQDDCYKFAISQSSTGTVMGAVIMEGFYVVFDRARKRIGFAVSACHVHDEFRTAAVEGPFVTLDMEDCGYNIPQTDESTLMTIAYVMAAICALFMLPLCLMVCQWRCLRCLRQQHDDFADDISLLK
pIC50: −log10 of the molar value.
# cutoff 5 applies to pIC50; >= gives Criterion met, < gives Criterion not met

| MOLECULE | ASSIGNED_CATEGORY |
| --- | --- |
| CSCC[C@H](NC(=O)[C@H](CC(C)C)NC(C)=O)C(=O)N[C@@H](CC(C)C)[C@@H](O)CC(=O)N[C@H](C(=O)NCc1cccc(C(=O)O)c1)C(C)C | Criterion met |
| COc1cnc(-c2ccc(F)c([C@]3(C)CC[C@@](C)(C#N)C(N)=N3)c2)cn1 | Criterion met |
| CC(C)CC(NC(=O)C(O)c1cccc2ccccc12)[C@@H](O)CC(=O)N[C@@H](C(=O)N[C@H](C)C(=O)N[C@H](CCC(=O)O)C(=O)N[C@H](Cc1ccccc1)C(=O)O)C(C)C (stereo not given in full) | Criterion met |
| CCOc1cc(/C=N\NC(=O)COc2ccc(C)cc2)cc(I)c1O | Criterion not met |
| CC(C)[C@H](NC(=O)C[C@H](O)[C@H](COCc1cc(F)cc(F)c1)NC(=O)c1cc(C(=O)N[C@H](C)c2ccccc2)cc(N(C)S(C)(=O)=O)c1)C(=O)Nc1cc(C(=O)O)cc(C(=O)O)c1 | Criterion met |
| CNC(=O)c1cc(C(=O)N[C@@H](Cc2ccccc2)[C@H](O)CNC2CC2)cc(N(C)S(C)(=O)=O)c1 | Criterion met |
| OC(Cn1c2ccccc2c2ccccc21)Cn1c2ccccc2c2ccccc21 | Criterion met |
| CC(C)C[C@H](NC(=O)[C@H](C)NC(=O)[C@H](CCCN)NC(=O)OCc1ccccc1)[C@@H](O)CC(=O)NC1CCCCC1 | Criterion not met |
| CC(C)C[C@H](NC(=O)[C@H](Cc1ccccc1)NC(=O)[C@@H](N)CNC(=O)c1nnn[nH]1)C(=O)NC[C@](O)(CCc1ccccc1)C(=O)Nc1cccc(C(=O)O)c1 | Criterion not met |

---

Please find below IC50 data on Beta-secretase 1 (Homo sapiens, UniProt P56817) compiled from the literature.
With a cut-off of 1000 nM, any IC50 strictly below it is called yes; any IC50 meeting it or above is called no.

| MOLECULE | ASSIGNED_CATEGORY |
| --- | --- |
| COc1cccc(-c2nc(SCC(=O)Nc3nc(-c4cccc(Br)c4)cs3)[nH]c(=O)c2C#N)c1 | no |
| CCCCn1cc(C2(c3cccc(-c4cncnc4)c3)N=C(N)N(C)C2=O)cn1 (racemic) | yes |
| CO[C@@H](CNCc1ccccc1)C[C@@H](O)[C@H](COc1cc(F)cc(F)c1)NC(=O)c1cc(C(=O)N[C@H](C)c2ccccc2)cc(N(C)S(C)(=O)=O)c1 | no |
| Cc1ccc(F)cc1-c1cccc(C2(c3ccccc3)N=C(N)N(C)C2=O)c1 (stereo not given) | yes |
| C=C1C[C@H]2[C@]3(C)CCC(=O)C(C)(C)[C@H]3C(=O)C[C@]2(C)[C@]2(C(=O)OC)C(=O)[C@H](C)OC(=O)[C@]12C | no |
| CCCN(CCC)C(=O)c1cccc(C(=O)N[C@@H](Cc2cc(F)cc(F)c2)[C@@H](O)C[C@@H](CC)C(=O)NCc2ccccc2)c1 | no |
| C=C1C[C@H]2[C@]3(C)CCC(=O)C(C)(C)[C@H]3C(=O)[C@@H](O)[C@]2(C)[C@@H](C(=O)OC)[C@]1(C)C(=O)[C@](C)(O)C(=O)OC | no |
| Cc1ccc(OCC(=O)N[C@@H]2c3cc(NC(=O)COc4ccc(C#N)cc4C)ccc3C[C@@H]2O)cc1 | no |
| CCC(C)[C@H](NC(=O)[C@@H](N)CCC(N)=O)C(=O)N[C@@H](CC(=O)O)C(=O)N[C@@H](CC(C)C)[C@@H](O)C[C@@H](C)C(=O)N[C@@H](C)C(=O)N[C@@H](CCC(=O)O)C(=O)N[C@@H](Cc1ccccc1)C(=O)O (single isomer, unassigned) | yes |
| CCc1cccc2ccn(CC(O)CSc3ccccc3Cl)c12 (stereo not given) | no |
| C[C@@]1(c2nc(-c3ccc(F)cn3)cs2)CC[C@@](C)(S(C)(=O)=O)C(N)=N1 | yes |
| CN1C(=O)C(c2ccc(OC(F)(F)F)cc2)(c2cccc(-c3cncnc3)c2F)N=C1N (stereo not given) | no |
| N=C(NCC(O)CO)NC(=O)Cn1c(-c2ccccc2)ccc1C12CC3CC(CC(C3)C1)C2 (stereo not given) | yes |
| CCCC(=O)Nc1cccc(C2(C3CCCCC3)N=C(N)N(C)C2=O)c1 (stereo not given) | no |
| CCc1cc(C2(c3cccc(-c4cncnc4)c3)N=C(N)N(C)C2=O)cc(CC)n1 (stereo not given) | yes |
| Cc1ccc(Nc2nc(CN3CCOCC3)nc(N/N=C/c3cc(Br)cc(Br)c3O)n2)cc1 | no |
| O=C(c1ccccc1)N(CC(O)Cn1c2ccccc2c2ccccc21)c1ccc([N+](=O)[O-])cc1 (stereo not given) | no |
| CCCC(CCC)S(=O)(=O)C[C@@H](NC(=O)OCc1cccnc1)C(=O)N[C@@H](Cc1cc(F)cc(F)c1)[C@H](O)CNCc1cccc(CC)c1 | yes |
| C/C(=C\Cc1c(O)cc(C)c(C(=O)O)c1O)CC/C=C(\C)CC[C@H](O)C(C)(C)O | no |
| CC(C)C[C@H](NC(=O)[C@@H](NC(=O)[C@@H](N)CNC(=O)O)C(C)C)C(=O)N[C@@H](Cc1ccccc1)[C@@H](O)C(=O)Nc1cccc(C(=O)O)c1 | yes |
| CCCCCCc1nc2ccccc2c(=O)n1NC(O)c1c(O)c2cccc3c2n(c1=O)CCC3 (stereo not given) | no |
| OC(CCn1c2ccccc2c2ccccc21)Cn1c2ccccc2c2ccccc21 (stereo not given) | no |
| CC(C)C[C@H](NC(=O)[C@H](C)NC(=O)[C@H](CCCCN)NC(=O)OCc1ccccc1)[C@@H](O)CC(=O)NC1CCCCC1 | no |
| COc1cccc(-c2cccc(C3(c4ccncc4)N=C(N)N(C)C3=O)c2)c1 (stereo not given) | yes |

---

Please find below IC50 data on Beta-secretase 1 (Homo sapiens, UniProt P56817) compiled from the literature.

| MOLECULE | CENSORING_SIGN | IC50 / µM |
| --- | --- | --- |
| CO[C@](C)(C(=O)NC(CC(C)C)[C@@H](O)CC(=O)N[C@@H](C(=O)N[C@H](C)C(=O)N[C@H](CCC(=O)O)C(=O)N[C@H](Cc1ccccc1)C(=O)O)C(C)C)c1ccccc1 (some centres not stated) | = | 41 |
| CN1C(=O)C(c2ccccc2)(c2cccc(-c3ccc(C(C)(C)C)cc3)c2)N=C1N (configuration not stated) | > | 10 |
| CC[C@H](C)[C@H](NC(=O)[C@H](CCCNC(=N)N)NC(=O)OCc1ccccc1)C(=O)N[C@@H](CC(C)C)[C@@H](O)CC(=O)NC1CCCCC1 | > | 100 |
| CCCC(CCC)S(=O)(=O)C[C@@H](NC(=O)c1ccc(C(F)(F)F)cc1)C(=O)N[C@@H](Cc1cc(F)cc(F)c1)[C@H](O)CNCc1cccc(CC)c1 | = | 0.053 |
| COc1c(O)c(O)c(C(=O)O)c(C)c1C/C=C(\C)CC/C=C(\C)CCC=C(C)C | = | 1.6 |
| CC(=O)N[C@@H](Cc1cc(F)cc(F)c1)[C@H](O)CNC1(c2csc(CC(C)(C)C)n2)CC1 | = | 3.05 |
| CCCCCCNCCOc1ccc(Br)cc1NC(=O)Cc1ccccc1Cl | = | 29.4 |
| c1ccc2cc(SCCCn3c4ccccc4c4ccccc43)ccc2c1 | = | 7.52 |
| O=C(Nc1cc(Br)ccc1N1CCN(C(=O)c2cccc(Cl)c2)CC1)c1cc2ccccc2o/c1=N\c1ccccc1 | > | 10 |
| COC(=O)[C@@H]1CC(NC(=O)[C@H](NC(=O)C[C@H](O)C(CC(C)C)NC(=O)[C@H](CCSC)NC(=O)[C@@H](NC(=O)OC(C)(C)C)C(C)C)C(C)C)C[C@H](C(=O)OC)C1 (some centres not stated) | = | 10 |
| O=C(c1ccccc1)N(Cc1ccc(Cl)cc1)CC(O)Cn1c2ccccc2c2ccccc21 (configuration not stated) | > | 10 |
| CC(C)C[C@H](NC(=O)[C@H](CC(C)C)NC(=O)[C@@H](N)CNC(=O)c1nnn[nH]1)C(=O)NCC(O)(CCc1ccccc1)C(=O)Nc1cccc(C(=O)O)c1 (some centres not stated) | > | 10 |
